Target: T1, murine TIM-3 extracellular domain protein with hFc tag (mTIM-3-hFc) (mouse, UniProt Q8VIM0 29-191)
T1 construct: also called mouse TIM-3 extracellular domain protein; not shown: human IgG Fc fragment (hFc) of the pCpC vector
T1 chain: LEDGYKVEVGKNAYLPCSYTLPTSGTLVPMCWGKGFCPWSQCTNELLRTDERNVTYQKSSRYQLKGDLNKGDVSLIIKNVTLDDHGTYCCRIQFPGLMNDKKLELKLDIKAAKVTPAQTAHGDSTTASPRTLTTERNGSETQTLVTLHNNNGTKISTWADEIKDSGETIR
Assay: ELISA, coated mouse TIM-3 ECD protein, 66.667 nM antibody
attributeMeasured: OD450
Give your answer as a number; write no unit.

Take a look at these entries with their results.
binder	OD450
134H3G6 fully human TIM-3 antibody (human IgG4, kappa) (antibody, V domains shown) VH: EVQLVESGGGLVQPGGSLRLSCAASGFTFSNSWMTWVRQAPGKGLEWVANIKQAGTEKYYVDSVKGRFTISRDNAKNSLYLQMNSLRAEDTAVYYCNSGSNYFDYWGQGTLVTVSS VL: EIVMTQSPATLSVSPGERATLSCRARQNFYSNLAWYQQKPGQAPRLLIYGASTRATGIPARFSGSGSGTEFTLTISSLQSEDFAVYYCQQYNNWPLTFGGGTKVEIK	0.94
39E5H1 fully human TIM-3 antibody (human IgG4, kappa) (antibody, V domains shown) VH: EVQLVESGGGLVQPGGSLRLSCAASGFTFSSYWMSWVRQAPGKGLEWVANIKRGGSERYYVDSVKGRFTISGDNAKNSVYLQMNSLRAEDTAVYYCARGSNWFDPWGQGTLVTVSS VL: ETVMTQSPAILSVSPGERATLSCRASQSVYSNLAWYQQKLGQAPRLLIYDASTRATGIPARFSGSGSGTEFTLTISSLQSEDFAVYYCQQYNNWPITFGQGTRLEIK	1.28

I would be grateful if you could share the reported OD450 for 18D2H2 fully human TIM-3 antibody (human IgG4, kappa) (antibody, V domains shown) VH: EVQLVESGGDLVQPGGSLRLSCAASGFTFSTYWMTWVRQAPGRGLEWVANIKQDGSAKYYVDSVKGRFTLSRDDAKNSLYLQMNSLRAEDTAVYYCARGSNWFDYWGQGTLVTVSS VL: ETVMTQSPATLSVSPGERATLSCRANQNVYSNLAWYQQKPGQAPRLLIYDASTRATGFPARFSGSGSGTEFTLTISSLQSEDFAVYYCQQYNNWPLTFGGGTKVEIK .
0.81
